- Target: Recombinant human integrin α5β1 (Homo sapiens, UniProt P05556+P08648)
- Sequence (P08648 42-995 limits assumed): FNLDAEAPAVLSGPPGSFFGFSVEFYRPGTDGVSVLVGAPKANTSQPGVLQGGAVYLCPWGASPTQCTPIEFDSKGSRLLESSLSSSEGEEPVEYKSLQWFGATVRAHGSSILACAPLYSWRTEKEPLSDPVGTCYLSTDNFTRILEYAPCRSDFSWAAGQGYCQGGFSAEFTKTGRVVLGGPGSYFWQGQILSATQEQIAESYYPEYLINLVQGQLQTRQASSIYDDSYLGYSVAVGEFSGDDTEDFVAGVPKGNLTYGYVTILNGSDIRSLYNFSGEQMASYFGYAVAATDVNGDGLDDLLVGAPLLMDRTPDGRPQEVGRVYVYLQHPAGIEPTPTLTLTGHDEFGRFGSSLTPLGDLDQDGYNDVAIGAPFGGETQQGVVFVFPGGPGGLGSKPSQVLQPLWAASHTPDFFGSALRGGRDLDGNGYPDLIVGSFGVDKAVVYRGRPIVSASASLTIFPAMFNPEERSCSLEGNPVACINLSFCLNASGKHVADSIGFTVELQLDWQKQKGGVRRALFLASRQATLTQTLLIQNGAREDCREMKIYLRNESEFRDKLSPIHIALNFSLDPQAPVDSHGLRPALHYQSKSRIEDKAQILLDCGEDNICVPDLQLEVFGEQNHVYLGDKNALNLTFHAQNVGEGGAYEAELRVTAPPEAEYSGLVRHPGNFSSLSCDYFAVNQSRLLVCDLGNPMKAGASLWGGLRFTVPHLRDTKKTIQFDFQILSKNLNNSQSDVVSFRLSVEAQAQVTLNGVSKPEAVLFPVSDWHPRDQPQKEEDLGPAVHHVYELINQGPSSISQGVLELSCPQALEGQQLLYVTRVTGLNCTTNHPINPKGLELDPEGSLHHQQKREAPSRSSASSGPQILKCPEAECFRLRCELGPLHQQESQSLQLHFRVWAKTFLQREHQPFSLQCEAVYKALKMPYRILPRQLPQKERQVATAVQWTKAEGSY
- Sequence (P05556 21-728 limits assumed): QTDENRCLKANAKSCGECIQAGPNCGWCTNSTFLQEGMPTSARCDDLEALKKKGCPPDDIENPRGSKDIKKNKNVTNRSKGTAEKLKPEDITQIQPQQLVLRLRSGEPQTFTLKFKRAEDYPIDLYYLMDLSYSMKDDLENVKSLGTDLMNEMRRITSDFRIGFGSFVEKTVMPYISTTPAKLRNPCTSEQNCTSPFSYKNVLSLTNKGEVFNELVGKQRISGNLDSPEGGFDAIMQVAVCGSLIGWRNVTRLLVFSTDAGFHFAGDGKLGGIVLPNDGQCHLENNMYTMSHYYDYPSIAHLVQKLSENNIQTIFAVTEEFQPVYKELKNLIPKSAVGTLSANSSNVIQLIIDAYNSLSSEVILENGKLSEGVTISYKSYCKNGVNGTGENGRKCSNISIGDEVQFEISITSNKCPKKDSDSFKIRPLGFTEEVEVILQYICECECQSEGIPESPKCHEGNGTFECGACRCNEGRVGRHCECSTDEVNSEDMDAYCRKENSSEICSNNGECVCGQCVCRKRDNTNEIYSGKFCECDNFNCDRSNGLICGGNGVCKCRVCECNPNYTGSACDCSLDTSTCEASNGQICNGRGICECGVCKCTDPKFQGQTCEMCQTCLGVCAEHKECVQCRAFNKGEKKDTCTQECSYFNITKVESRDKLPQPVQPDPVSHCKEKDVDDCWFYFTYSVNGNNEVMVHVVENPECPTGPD
- Assay info: Solid Phase Receptor Assay (SPRA) for α5β1 function
- Test parameters: plate-bound human fibronectin
Counter-ions that a name gives are not always drawn.
Measured attribute: log10 IC50 (log10 of the value in µM)
Please be aware that the numbers have been log10-transformed from IC50 in µM.

CC(C)(C)c1cc(Br)cc(C(CC(=O)O)Cc2cc(OCCc3ccc4c(n3)NCCC4)n(CC(F)(F)F)n2)c1 (stereo not shown) [Example 41, Trifluoroacetate]
-2.19
Cn1nc(CC(CC(=O)O)c2cccc(C#N)c2)cc1OCCc1ccc2c(n1)NCCC2 (stereo not shown)
-0.96
Cn1nc(CC(CC(=O)O)c2cc(C(F)(F)F)cc(C3(C(F)F)CC3)c2)cc1OCCc1ccc2c(n1)NCCC2 (stereo not shown)
-2.06
COc1ccc(Br)cc1C(CC(=O)O)Cc1cc(OCCc2ccc3c(n2)NCCC3)n(C)n1 (stereo not shown) [Example 14, trifluoroacetate]
-1.36
COCC1(c2cc(Cl)cc(C(CC(=O)O)Cc3cc(OCCc4ccc5c(n4)NCCC5)n(C)n3)c2)CCOCC1 (stereo not shown)
-2.29

Next, consider the following molecule.
Tell me measured log10 IC50 for Cn1nc(CC(CC(=O)O)c2cc(Br)cc(C3(C(F)F)CC3)c2)cc1OCCc1ccc2c(n1)NCCC2 (stereo not shown) please.
-1.82

###

- Target: Recombinant human integrin ανβ5 (Homo sapiens, UniProt P06756+P18084)
- Sequence (P06756 31-992 limits assumed): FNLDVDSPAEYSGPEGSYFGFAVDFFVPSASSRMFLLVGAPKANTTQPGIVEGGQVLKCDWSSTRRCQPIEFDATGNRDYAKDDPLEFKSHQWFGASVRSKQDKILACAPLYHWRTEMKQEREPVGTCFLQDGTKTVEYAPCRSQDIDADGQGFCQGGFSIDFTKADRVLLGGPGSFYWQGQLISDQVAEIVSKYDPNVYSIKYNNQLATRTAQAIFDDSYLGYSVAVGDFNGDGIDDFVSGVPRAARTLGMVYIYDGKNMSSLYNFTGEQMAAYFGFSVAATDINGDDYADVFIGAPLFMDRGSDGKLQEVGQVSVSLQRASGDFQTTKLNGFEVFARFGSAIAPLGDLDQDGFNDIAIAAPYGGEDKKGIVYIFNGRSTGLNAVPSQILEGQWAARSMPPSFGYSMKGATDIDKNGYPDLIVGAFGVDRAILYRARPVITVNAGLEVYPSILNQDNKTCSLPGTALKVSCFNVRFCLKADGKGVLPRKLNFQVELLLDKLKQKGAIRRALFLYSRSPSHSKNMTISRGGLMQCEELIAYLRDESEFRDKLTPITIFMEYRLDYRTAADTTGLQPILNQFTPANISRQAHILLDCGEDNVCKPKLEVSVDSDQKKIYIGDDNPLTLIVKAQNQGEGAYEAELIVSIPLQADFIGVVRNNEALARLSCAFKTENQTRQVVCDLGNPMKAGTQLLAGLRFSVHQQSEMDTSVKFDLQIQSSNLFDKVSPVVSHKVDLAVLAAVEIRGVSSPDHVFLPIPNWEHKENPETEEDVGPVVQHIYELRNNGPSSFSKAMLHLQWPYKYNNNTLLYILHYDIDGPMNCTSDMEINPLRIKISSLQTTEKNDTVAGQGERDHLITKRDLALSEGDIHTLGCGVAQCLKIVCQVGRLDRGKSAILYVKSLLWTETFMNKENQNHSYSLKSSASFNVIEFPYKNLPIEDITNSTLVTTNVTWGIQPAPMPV
- Sequence (P18084 24-719 limits assumed): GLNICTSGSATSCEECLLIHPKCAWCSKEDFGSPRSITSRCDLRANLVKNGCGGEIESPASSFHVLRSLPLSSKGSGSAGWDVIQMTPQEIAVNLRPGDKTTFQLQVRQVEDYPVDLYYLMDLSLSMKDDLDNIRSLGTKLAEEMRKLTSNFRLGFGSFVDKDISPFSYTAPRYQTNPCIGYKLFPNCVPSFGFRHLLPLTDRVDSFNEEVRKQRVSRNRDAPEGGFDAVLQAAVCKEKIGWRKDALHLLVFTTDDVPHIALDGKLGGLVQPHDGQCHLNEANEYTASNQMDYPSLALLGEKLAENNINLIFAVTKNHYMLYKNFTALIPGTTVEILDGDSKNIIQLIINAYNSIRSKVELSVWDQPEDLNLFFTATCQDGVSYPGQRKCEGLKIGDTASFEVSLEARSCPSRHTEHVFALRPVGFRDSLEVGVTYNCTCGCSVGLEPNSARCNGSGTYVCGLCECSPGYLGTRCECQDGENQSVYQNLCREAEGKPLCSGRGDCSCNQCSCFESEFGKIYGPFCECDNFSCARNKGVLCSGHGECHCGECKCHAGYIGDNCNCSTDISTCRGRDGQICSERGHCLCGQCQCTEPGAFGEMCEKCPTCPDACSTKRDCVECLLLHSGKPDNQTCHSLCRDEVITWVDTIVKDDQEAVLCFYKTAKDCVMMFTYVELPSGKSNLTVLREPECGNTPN
- Assay info: Solid Phase Receptor Assay (SPRA) for ανβ5 function
- Test parameters: plate-bound human vitronectin; read-out: αvβ5 SPRA IC50
Counter-ions that a name gives are not always drawn.
Measured attribute: pIC50
Please express pIC50 as -log10 of the molar concentration.

Recorded results for 5 compounds are shown here.
COc1ccc(C(=O)O)cc1C(CC(=O)O)Cc1cc(OCCc2ccc3c(n2)NCCC3)n(C)n1 (stereo not drawn) [Example 48, Trifluoroacetate]
9.15
Cn1nc(CC(CC(=O)O)c2cc(Br)cc(OC(F)(F)F)c2)cc1OCCc1ccc2c(n1)NCCC2 (stereo not drawn)
9.10
Cn1nc(CC(CC(=O)O)c2cc(F)cc(C3(C(F)F)CC3)c2)cc1OCCc1ccc2c(n1)NCCC2 (stereo not drawn)
9.70
Cn1nc(CC(CC(=O)O)c2cc(C(C)(C)C)ccc2O)cc1OCCc1ccc2c(n1)NCCC2 (stereo not drawn) [Example 42, Sodium Salt]
8.18
Cn1nc(CC(CC(=O)O)c2cc(F)cc(Cl)c2)cc1OCCc1ccc2c(n1)NCCC2 (stereo not drawn)
9.52

Let's switch to this compound now.
State pIC50 (Recombinant human integrin ανβ5 (Homo sapiens, UniProt P06756+P18084)) of Cn1nc(CC(CC(=O)O)c2cccc(C(C)(C)C)c2)cc1OCCc1ccc2c(n1)NCCC2 (stereo not drawn) [Example 49, Trifluoroacetate] .
9.40

###

- Target: Recombinant human integrin α5β1 (Homo sapiens, UniProt P05556+P08648)
- Assay info: Solid Phase Receptor Assay (SPRA) for α5β1 function
- Test parameters: plate-bound human fibronectin
- Protocol: A. Solid Phase Receptor Assay (SPRA) for α5β1 Function Wells were washed 3 times with 150 μL TBS+ and then 150 μL of blocking buffer (TBS+ with 1% bovine serum albumin, Sigma A7906) was added. The plate was incubated for 1 hr at 37° C. and then washed 3× with TBS+ buffer. […] 25 μL of 1.0 M phosphoric acid was added as a stop solution and the plates were read at 450 nm using a Spectramax plate reader.
IC50 values for the molecules below.
# output: bare number, implied unit nM

Cn1nc(CC(CC(=O)O)c2cc(C#N)cc(C(C)(C)C)c2)cc1OCCc1ccc2c(n1)NCCC2 (centres unmarked)
11

Output IC50 of Cn1nc(CC(CC(=O)O)c2cc(Br)cc(C(C)(C)C(F)(F)F)c2)cc1OCCc1ccc2c(n1)NCCC2 (centres unmarked)
16

Name the recorded IC50 of the molecule listed here: Cn1nc(CC(CC(=O)O)c2cc(Cl)cc(C3(C(F)F)CC3)c2)cc1OCCc1ccc2c(n1)NCCC2 (centres unmarked)
8.8

Retrieve IC50 measured for Cn1nc(CC(CC(=O)O)c2ccc(F)c(C#N)c2)cc1OCCc1ccc2c(n1)NCCC2 (centres unmarked) and print it.
224

###

- Target: Recombinant human integrin ανβ8 (Homo sapiens, UniProt P06756+P26012)
- Sequence (P06756 31-992 limits assumed): as the sequence (P06756 31-992 limits assumed) above
- Sequence (P26012 43-684 limits assumed): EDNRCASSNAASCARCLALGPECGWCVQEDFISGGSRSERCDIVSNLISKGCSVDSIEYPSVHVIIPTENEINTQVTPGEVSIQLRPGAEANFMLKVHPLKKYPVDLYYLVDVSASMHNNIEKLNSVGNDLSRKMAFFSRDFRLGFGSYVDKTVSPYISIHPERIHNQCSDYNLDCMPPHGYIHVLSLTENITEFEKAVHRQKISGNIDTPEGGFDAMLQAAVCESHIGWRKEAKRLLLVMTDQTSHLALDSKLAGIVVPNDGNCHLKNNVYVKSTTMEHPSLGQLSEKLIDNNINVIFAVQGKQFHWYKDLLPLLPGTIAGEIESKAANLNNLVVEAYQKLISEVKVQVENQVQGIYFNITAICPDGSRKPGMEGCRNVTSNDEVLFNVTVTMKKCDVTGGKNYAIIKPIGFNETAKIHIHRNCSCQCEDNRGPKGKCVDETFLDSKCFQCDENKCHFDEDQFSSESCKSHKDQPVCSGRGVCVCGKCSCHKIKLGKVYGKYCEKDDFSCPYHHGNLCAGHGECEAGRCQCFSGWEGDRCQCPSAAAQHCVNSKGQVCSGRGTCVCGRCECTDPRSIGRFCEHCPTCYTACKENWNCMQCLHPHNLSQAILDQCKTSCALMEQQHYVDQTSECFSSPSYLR
- Assay info: Solid Phase Receptor Assay (SPRA) for ανβ8 function
- Test parameters: plate-bound human LAP; read-out: αvβ8 SPRA IC50
Structures can show the parent of a compound that is named as a salt.
Hi! Could you tag entries with IC50 below 20 nM as Yes, and those at or above as No? Much appreciated.

Example entries and their recorded answers appear below.
Cn1nc(CC(CC(=O)O)c2cccc(C(C)(C)C)c2)cc1OCCc1ccc2c(n1)NCCC2 (centres unmarked) [Example 49, Trifluoroacetate]
No
Cn1nc(CC(CC(=O)O)c2cc(C#N)cc(C(C)(C)C)c2)cc1OCCc1ccc2c(n1)NCCC2 (centres unmarked) [Example 17]
Yes

Bench note: check whether Cn1nc(CC(CC(=O)O)c2cccc(Br)c2)cc1OCCc1ccc2c(n1)NCCC2 (centres unmarked) [Example 6] shows IC50 below 20 nM
Yes

Hi there! Is IC50 for Cn1nc(CC(CC(=O)O)c2cccc(C#N)c2)cc1OCCc1ccc2c(n1)NCCC2 (centres unmarked) [Example 9] below 20 nM, do you know?
No

Item Cn1nc(CC(CC(=O)O)c2cc(Br)cc(C(F)(F)F)c2)cc1OCCc1ccc2c(n1)NCCC2 (centres unmarked) [Example 10] : IC50 beneath 20 nM, strictly?
Yes

A record lists Cc1ccc(C(C)(C)C)cc1C(CC(=O)O)Cc1cc(OCCc2ccc3c(n2)NCCC3)n(C)n1 (centres unmarked) [Example 44, Trifluoroacetate] . Is its IC50 below 20 nM?
No

###

- Target: Recombinant human integrin α5β1 (Homo sapiens, UniProt P05556+P08648)
- Construct: purchased R&D Systems 3230-A5
- Assay info: Solid Phase Receptor Assay (SPRA) for α5β1 function
- Type: binding
- Test parameters: plate-bound human fibronectin
Structures can show the parent of a compound that is named as a salt.
Measured attribute: pIC50
// pIC50 is dimensionless: -log10 of concentration (M)

Recorded pIC50, per entry:
Cn1nc(CC(CC(=O)O)c2cc(F)cc(C3(C(F)F)CC3)c2)cc1OCCc1ccc2c(n1)NCCC2 (stereo not shown) [Example 21]
7.92
Cn1nc(CC(CC(=O)O)c2cccc(C(C)(C)C)c2)cc1OCCc1ccc2c(n1)NCCC2 (stereo not shown) [Example 49, Trifluoroacetate]
7.92
Cn1nc(CC(CC(=O)O)c2cc(C(C)(C)C)cc(C(C)(C)C)c2)cc1OCCc1ccc2c(n1)NCCC2 (stereo not shown) [Example 18]
8.19

Item COc1ccc(C(F)(F)F)cc1C(CC(=O)O)Cc1cc(OCCc2ccc3c(n2)NCCC3)n(C)n1 (stereo not shown) [Example 13, Trifluoroacetate] : provide pIC50
7.23

###

- Target: Recombinant human integrin α5β1 (Homo sapiens, UniProt P05556+P08648)
- Assay info: Solid Phase Receptor Assay (SPRA) for α5β1 function
- Test parameters: plate-bound human fibronectin
Counter-ions that a name gives are not always drawn.
Measured IC50, listed per entry for reference.
Write the answer as a number in nM, unit excluded.

Before answering, review these 3 worked examples.
COc1ccc(C(C)C)cc1C(CC(=O)O)Cc1cc(OCCc2ccc3c(n2)NCCC3)n(C)n1 (stereo not shown) [Example 39, Trifluoroacetate]
31
COCC1(c2cc(C(CC(=O)O)Cc3cc(OCCc4ccc5c(n4)NCCC5)n(C)n3)cc(C(F)(F)F)c2)CCOCC1 (stereo not shown)
12
Cn1nc(CC(CC(=O)O)c2cc(C(F)(F)F)cc(C(C)(C)C(F)(F)F)c2)cc1OCCc1ccc2c(n1)NCCC2 (stereo not shown)
12

Fill in IC50 for record Cc1ccc(C(C)(C)C)cc1C(CC(=O)O)Cc1cc(OCCc2ccc3c(n2)NCCC3)n(C)n1 (stereo not shown) [Example 44, Trifluoroacetate]
230

Provide only the value of recorded IC50 for COc1ccc(C(=O)O)cc1C(CC(=O)O)Cc1cc(OCCc2ccc3c(n2)NCCC3)n(C)n1 (stereo not shown) [Example 48, Trifluoroacetate]
230

Indicate the recorded IC50 value for this compound: Cn1nc(CC(CC(=O)O)c2cc(F)cc(C(C)(C)C)c2)cc1OCCc1ccc2c(n1)NCCC2 (stereo not shown)
23

Item Cn1nc(CC(CC(=O)O)c2ccc(F)c(Br)c2)cc1OCCc1ccc2c(n1)NCCC2 (stereo not shown) : provide IC50
140

Name the recorded IC50 of the item Cn1nc(CC(CC(=O)O)c2cccc(Br)c2)cc1OCCc1ccc2c(n1)NCCC2 (stereo not shown) in your answer.
158

Supply IC50 value. Item: Cn1nc(CC(CC(=O)O)c2cc(OC(F)(F)F)cc(C(C)(C)C)c2)cc1OCCc1ccc2c(n1)NCCC2 (stereo not shown)
7.1

Identify measured IC50 corresponding to Cn1nc(CC(CC(=O)O)c2ccc(C#N)c(F)c2)cc1OCCc1ccc2c(n1)NCCC2 (stereo not shown)
166

Supply IC50 value. Item: Cn1nc(CC(CC(=O)O)c2cc(C#N)cc(C(C)(C)C(F)(F)F)c2)cc1OCCc1ccc2c(n1)NCCC2 (stereo not shown) [Example 28, Trifluoroacetate]
8.5
